molecular target: Human Rac1 (residues 1-177), GMPPNP-loaded (human, UniProt P63000 1-177); assay: ITC; 10 °C, GMPPNP-loaded Rac1 (average)
pKd: −log10 of the molar value.
Reported Endpoint: pKd

POSH_(315-380), shorter construct of human POSH comprising MRE1 and MRE2 (domain or fragment) GHMWSQASQNRHSMEISPPVLISSSNPTAAARISELSGLSCSAPSQVHISTTGLIVTPPPSSPVTTGPSF | 4.57
